target or test system: focal adhesion kinase (FAK) autophosphorylation at tyrosine 397 in HT29 cells (Homo sapiens, UniProt Q05397)
Construct: endogenous in cells; host or cells: HT29
Sequence (Q05397 whole entry): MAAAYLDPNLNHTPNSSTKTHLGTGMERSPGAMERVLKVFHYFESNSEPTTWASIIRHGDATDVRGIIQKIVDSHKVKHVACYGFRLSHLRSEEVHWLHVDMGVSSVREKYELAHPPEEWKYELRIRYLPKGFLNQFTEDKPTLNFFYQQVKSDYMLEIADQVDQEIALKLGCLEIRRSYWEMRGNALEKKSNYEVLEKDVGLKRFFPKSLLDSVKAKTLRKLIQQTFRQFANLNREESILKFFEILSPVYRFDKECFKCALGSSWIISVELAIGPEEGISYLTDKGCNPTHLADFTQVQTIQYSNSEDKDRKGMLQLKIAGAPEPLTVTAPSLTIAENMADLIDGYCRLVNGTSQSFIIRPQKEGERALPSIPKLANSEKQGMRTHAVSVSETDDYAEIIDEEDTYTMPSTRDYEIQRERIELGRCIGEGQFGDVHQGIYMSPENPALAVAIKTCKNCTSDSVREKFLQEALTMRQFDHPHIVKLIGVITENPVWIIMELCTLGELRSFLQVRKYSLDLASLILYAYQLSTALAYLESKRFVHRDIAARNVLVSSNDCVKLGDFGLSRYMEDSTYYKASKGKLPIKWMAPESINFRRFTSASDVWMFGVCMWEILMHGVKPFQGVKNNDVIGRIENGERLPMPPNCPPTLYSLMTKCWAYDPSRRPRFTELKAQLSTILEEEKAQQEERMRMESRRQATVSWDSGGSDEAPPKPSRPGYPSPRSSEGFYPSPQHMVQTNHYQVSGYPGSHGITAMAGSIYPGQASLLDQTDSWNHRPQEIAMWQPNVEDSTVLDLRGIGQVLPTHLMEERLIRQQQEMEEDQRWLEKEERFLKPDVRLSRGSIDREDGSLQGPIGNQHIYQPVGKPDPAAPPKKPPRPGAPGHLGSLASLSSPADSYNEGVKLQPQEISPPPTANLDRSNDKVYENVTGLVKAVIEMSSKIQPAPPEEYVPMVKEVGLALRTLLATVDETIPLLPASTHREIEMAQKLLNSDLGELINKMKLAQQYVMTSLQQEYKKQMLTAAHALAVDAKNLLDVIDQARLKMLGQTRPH
experimental protocol: Cellular testing of FAK inhibitors: FAK autophosphorylation at tyrosine 397 in HT29 cells (Luminex-based assay)
Assay type: cell-based
condition info: Table 2, phospho-Y397-FAK, 30 min serum-free, read-out: HT-29 IC50
readout type: IC50

Examples with answers:
- compound: "NC(=O)CNC(=O)c1cc(NCc2ccc(F)cc2F)nc(-c2cncc(C(F)(F)F)c2)n1 [Compound 72]"
  IC50: "100 to 1000 nM"
- compound: "CN1CCN(C(=O)CCNC(=O)c2cc(NCc3ccc(F)cc3F)nc(-c3cncc(C(F)(F)F)c3)n2)CC1 [Compound 44]"
  IC50: "1000 to 10000 nM"
- compound: "Fc1ccc(CNc2cc(NCCCN3CCOCC3)nc(-c3cncc(C(F)(F)F)c3)n2)c(F)c1 [Compound 58]"
  IC50: "1000 to 10000 nM"

Recorded IC50 (compound NC(=O)C1CCN(C(=O)c2cc(NCc3ccc(F)cc3F)nc(-c3cncc(C(F)(F)F)c3)n2)CC1 [Compound 49] ): 1000 to 10000 nM

Notebook: NC(=O)C1CCCN(c2cc(NCc3ccc(F)cc3F)nc(-c3cncc(C(F)(F)F)c3)n2)C1 (stereo not shown) [Compound 55] , IC50 read as 1000 to 10000 nM

Documented IC50 of CCN(CC)C(=O)CCNC(=O)c1cc(NCc2ccc(F)cc2F)nc(-c2cncc(C(F)(F)F)c2)n1 [Compound 42] : 1000 to 10000 nM

Summary for this compound, NC(=O)C1CCCN(C(=O)c2cc(NCc3ccc(F)cc3F)nc(-c3cncc(C(F)(F)F)c3)n2)C1 (stereo not shown) [Compound 50] : IC50 is 1000 to 10000 nM

Notebook: CN1CCC(CNC(=O)c2cc(NCc3ccc(F)cc3F)nc(-c3cncc(C(F)(F)F)c3)n2)C1 (stereo not shown) [Compound 51] , IC50 read as 1000 to 10000 nM

GET /value?item= CN(C)CCCNc1cc(NCc2ccc(F)cc2F)nc(-c2cncc(C(F)(F)F)c2)n1 [Compound 60] &field=IC50 returns 1000 to 10000 nM

O=C(NCCCn1ccnc1)c1cc(NCc2ccc(F)cc2F)nc(-c2cncc(C(F)(F)F)c2)n1 [Compound 46] has a reported IC50 of 1000 to 10000 nM

In plain terms, O=C(NCCCN1CCCC1=O)c1cc(NCc2ccc(F)cc2F)nc(-c2cncc(C(F)(F)F)c2)n1 [Compound 47] has a documented IC50 of 100 to 1000 nM
